# assay.system: T1, human glucose-dependent insulinotropic polypeptide receptor (GIPR), expressed on CHO-K1 cells (human, UniProt P48546 22-466)
# T1 sequence (looked up): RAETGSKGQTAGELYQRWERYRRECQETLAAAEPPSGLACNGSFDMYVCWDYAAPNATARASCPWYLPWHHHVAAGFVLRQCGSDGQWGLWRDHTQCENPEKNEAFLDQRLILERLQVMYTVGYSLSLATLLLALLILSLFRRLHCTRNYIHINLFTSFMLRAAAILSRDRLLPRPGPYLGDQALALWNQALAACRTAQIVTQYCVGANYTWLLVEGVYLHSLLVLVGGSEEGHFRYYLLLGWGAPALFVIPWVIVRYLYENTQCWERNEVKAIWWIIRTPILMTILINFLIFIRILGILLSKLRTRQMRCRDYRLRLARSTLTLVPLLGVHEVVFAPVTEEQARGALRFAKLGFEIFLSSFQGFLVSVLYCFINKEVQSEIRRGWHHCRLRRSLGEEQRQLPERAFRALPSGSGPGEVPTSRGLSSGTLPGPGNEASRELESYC
# procedure.details: cell-based or functional assay
Numbered stars: 1 amine (or outer) side, 2 acyl side, 3 side chain; on linkers, the order of the positions; unused ones are H or OH. Square brackets hold non-standard residues; d marks the D form. Side chains are listed from the residue outwards. Ends that are not written are not given here. C18 = C18 fatty acid (C16-C22 fatty acids conjugated via γGlu/8-amino-3,6-dioxaoctanoic acid spacers); γGlu = O=C(O)[C@H](CCC(=O)[*:2])N[*:1]; AEEA = NCCOCCOCC(=O)O; Aib = CC(C)(N)C(=O)O
Parameter: Ratio vs. GLP-1R. Scope: all listed entries.
Lab note: record the figure alone, no unit after it.

Please review the following examples before continuing.
binder	value.measured
Y[Aib]QGTFTSDYSK([AEEA-AEEA-γGlu-C18])LLDYMMQRDFVKWLLEGGPSSGAPPPS-NH2 (not fully specified (residue 24); printed as YAibQGT FTSDY SK*LLD YMMQR DFVB*W LLEGG PSSGA PPPS) [SEQ ID NO. 89]	399
Y[Aib]QGTFTSDYSK([AEEA-AEEA-γGlu-C18])LLDYMMQ[Aib]DFVQYLLEGGPSSGAPPPSK-NH2 (not fully specified (residue 40)) [SEQ ID NO. 92]	1530

Now take the following binder into account.
State the recorded Ratio vs. GLP-1R for this entry: Y[Aib]QGTFTSDYSK([AEEA-AEEA-γGlu-C18])LLDQQAQRDFVQWLLEGGPSSGAPPPS-NH2 [SEQ ID NO. 95]
19
